Some compounds, each annotated with its measured IC50.
# Tested on: SW626
# protocol: Cytotoxicity against human SW626 cells measured after 8 days
# Type: functional, cell-based
# condition: SW626, 192 h
API: value field is a number in µM; no unit string.

// query For the compound `C/C=C/Cn1cc(-c2ccc(C(=O)N3CCOCC3)cc2)c2cc[nH]c2c1=O` , give its reported IC50.
// result 20

Now turn to the next compound.
// query Identify the reported IC50 for the following entry. `C/C=C/Cn1cc(-c2ccc(C(C)(C)O)cc2OC)c2cc[nH]c2c1=O`
// result 20

----------
# protocol: Cytotoxicity against human JHH-4 cells measured after 3 days
# Assay type: functional, cell-based
# condition: JHH-4, 72 h
quantity: pIC50
When answering, recall that pIC50 equals minus log10 of the concentration in mol/L, and write that number alone.

// query Note down pIC50 recorded for `C/C=C/Cn1cc(-c2cc(OC)c(C(=O)N3CCOCC3)cc2OC)c2cc(C)[nH]c2c1=O`
// result 5.30

----------
# protocol: Cytotoxicity against human NCI-H2461 cells measured after 8 days
# Assay type: functional, cell-based
# condition: NCI-H2461, 192 h
In this section we review reported pIC50 values for a set of compounds.
Kindly note that pIC50 refers to -log10 of the concentration in mol/L and answer with the value alone.

// query For the compound `C/C=C/Cn1cc(-c2ccc(C(=O)N3CCOCC3)cc2)c2cc[nH]c2c1=O` , report pIC50.
// result 4.70

New cases:
// query Report pIC50 for `C/C=C/Cn1cc(-c2ccc(C(C)(C)O)cc2OC)c2cc[nH]c2c1=O`
// result 4.70

----------
# System: NCI-H1793
# protocol: Cytotoxicity against human NCI-H1793 cells measured after 8 days
# Format: functional, cell-based
# condition: NCI-H1793, 192 h
quantity: pIC50
Entry type: numeric. Quantity: pIC50, the -log10 of concentration in molar units.

// query Hello, please tell me recorded pIC50 for this one: `C/C=C/Cn1cc(-c2cc(OC)c(C(=O)N3CCOCC3)cc2OC)c2cc(C)[nH]c2c1=O`
// result 5.70

----------
A collection of compounds and their measured IC50
# Tested on: NUGC-4
# protocol: Cytotoxicity against human NUGC-4 cells measured after 8 days
# Format: functional, cell-based
# condition: NUGC-4, 192 h

Please review the entries below; each comes with its answer.
// query Hello, please tell me recorded IC50 for this one: `C/C=C/Cn1cc(-c2ccc(C(C)(C)O)cc2OC)c2cc[nH]c2c1=O`
// result 20 µM

// query Consider the compound `C/C=C/Cn1cc(-c2ccc(C(=O)N3CCOCC3)cc2)c2cc[nH]c2c1=O` . State its measured IC50.
// result 20 µM

Turning now to a further record.
// query Consider the compound `C/C=C/Cn1cc(-c2cc(OC)c(C(=O)N3CCOCC3)cc2OC)c2cc(C)[nH]c2c1=O` . State its measured IC50.
// result 2 µM

----------
# Test system: NCI-H460
# protocol: Cytotoxicity against human NCI-H460 cells measured after 3 days
# Format: functional, cell-based
# condition: NCI-H460, 72 h
quantity: IC50 (µM)
Just the number in µM, nothing appended.

// query Return IC50 for the following compound: `C/C=C/Cn1cc(-c2cc(OC)c(C(=O)N3CCOCC3)cc2OC)c2cc(C)[nH]c2c1=O`
// result 5

----------
# study-target: Bromodomain-containing protein 3 (Homo sapiens, UniProt Q15059)
# Sequence (Q15059 whole entry): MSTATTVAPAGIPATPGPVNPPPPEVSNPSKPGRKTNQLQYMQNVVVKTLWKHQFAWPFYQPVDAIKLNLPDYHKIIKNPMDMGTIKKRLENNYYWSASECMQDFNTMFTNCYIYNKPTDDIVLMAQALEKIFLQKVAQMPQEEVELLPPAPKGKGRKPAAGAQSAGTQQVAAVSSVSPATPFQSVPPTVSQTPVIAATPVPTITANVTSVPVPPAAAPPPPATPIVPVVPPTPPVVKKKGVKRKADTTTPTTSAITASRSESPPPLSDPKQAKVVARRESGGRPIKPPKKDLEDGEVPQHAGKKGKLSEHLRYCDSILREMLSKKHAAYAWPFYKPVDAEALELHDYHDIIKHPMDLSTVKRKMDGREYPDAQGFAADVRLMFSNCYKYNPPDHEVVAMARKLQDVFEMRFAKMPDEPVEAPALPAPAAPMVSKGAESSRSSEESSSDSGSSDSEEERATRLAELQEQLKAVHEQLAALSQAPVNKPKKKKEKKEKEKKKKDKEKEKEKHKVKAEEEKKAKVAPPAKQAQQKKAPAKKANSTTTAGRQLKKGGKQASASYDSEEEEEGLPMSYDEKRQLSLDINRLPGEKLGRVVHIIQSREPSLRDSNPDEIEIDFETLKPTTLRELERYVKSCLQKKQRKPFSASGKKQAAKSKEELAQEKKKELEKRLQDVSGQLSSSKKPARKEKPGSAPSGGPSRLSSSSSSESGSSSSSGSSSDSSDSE
# protocol: Binding affinity to BRD3 bromodomain 1/2 (unknown origin) by BROMOscan assay
quantity: Kd

// query Write down measured Kd (Bromodomain-containing protein 3 (Homo sapiens, UniProt Q15059)) for this compound. `C/C=C/Cn1cc(-c2cc(OC)c(C(C)(C)O)cc2OC)c2cc(C)[nH]c2c1=O`
// result > 10 µM

// query For Bromodomain-containing protein 3 (Homo sapiens, UniProt Q15059), give the measured Kd of the entry `C/C=C/Cn1cc(-c2ccc(C(C)(C)O)cc2OC)c2cc[nH]c2c1=O`
// result 5.5 µM

// query Look up and report Kd, with Bromodomain-containing protein 3 (Homo sapiens, UniProt Q15059) as system, for `C/C=C/Cn1cc(-c2cc(OC)c(C(=O)N3CCOCC3)cc2OC)c2cc(C)[nH]c2c1=O`
// result > 10 µM

Now look at this one.
// query Please look at `C/C=C/Cn1cc(-c2ccc(C(=O)N3CCOCC3)cc2)c2cc[nH]c2c1=O` and tell me its recorded Kd on Bromodomain-containing protein 3 (Homo sapiens, UniProt Q15059).
// result 4.4 µM

----------
# Test system: SK-MES-1
# protocol: Cytotoxicity against human SK-MES-1 cells measured after 8 days
# Type: functional, cell-based
# condition: SK-MES-1, 192 h
quantity: IC50 (µM)
The reply should be a number in µM, with the unit left off.

// query Query IC50 for `C/C=C/Cn1cc(-c2cc(OC)c(C(=O)N3CCOCC3)cc2OC)c2cc(C)[nH]c2c1=O`
// result 2

Next:
// query Specify IC50 for `C/C=C/Cn1cc(-c2ccc(C(=O)N3CCOCC3)cc2)c2cc[nH]c2c1=O` and stop.
// result 20

// query Name the recorded IC50 of the item `C/C=C/Cn1cc(-c2ccc(C(C)(C)O)cc2OC)c2cc[nH]c2c1=O` in your answer.
// result 20

----------
# Test system: Ramos
# protocol: Cytotoxicity against human Ramos cells measured after 3 days
# Type: functional, cell-based
# condition: 72 h
quantity: pIC50
pIC50 is a log-scale quantity: -log10 of the concentration expressed in molar.

// query Identify pIC50 associated with the compound `C/C=C/Cn1cc(-c2cc(OC)c(C(=O)N3CCOCC3)cc2OC)c2cc(C)[nH]c2c1=O`
// result 5.30

----------
# protocol: Cytotoxicity against human VMRC-RCW cells measured after 8 days
# Assay type: functional, cell-based
# condition: 192 h
Measured IC50 by item
Numeric only. Scale: µM

// query Given `C/C=C/Cn1cc(-c2ccc(C(=O)N3CCOCC3)cc2)c2cc[nH]c2c1=O` , respond with its IC50.
// result 20

---
// query Check the records and state IC50 for `C/C=C/Cn1cc(-c2ccc(C(C)(C)O)cc2OC)c2cc[nH]c2c1=O`
// result 20

----------
# protocol: Cytotoxicity against mouse KLN205 cells measured after 8 days
# Type: functional, cell-based
# condition: KLN205, 192 h
quantity: pIC50
The quantity pIC50 is defined as the negative base-10 logarithm of the molar concentration.

// query Specify pIC50 for `C/C=C/Cn1cc(-c2ccc(C(C)(C)O)cc2OC)c2cc[nH]c2c1=O` and stop.
// result 4.70

The record that follows has no pIC50 shown yet.
// query Quickly give me recorded pIC50 for `C/C=C/Cn1cc(-c2ccc(C(=O)N3CCOCC3)cc2)c2cc[nH]c2c1=O`
// result 4.70

----------
# System: SNU-638
# protocol: Cytotoxicity against human SNU-638 cells measured after 8 days
# Format: functional, cell-based
# condition: SNU-638, 192 h
quantity: IC50 (µM)
The reply should contain only the number, in µM.

// query Give recorded IC50. `C/C=C/Cn1cc(-c2ccc(C(C)(C)O)cc2OC)c2cc[nH]c2c1=O`
// result 20

Further cases:
// query Please give the documented IC50 of `C/C=C/Cn1cc(-c2ccc(C(=O)N3CCOCC3)cc2)c2cc[nH]c2c1=O`
// result 20

----------
Measured pIC50 of individual entries
# protocol: Cytotoxicity against human OVCA432 cells measured after 8 days
# Format: functional, cell-based
# condition: OVCA432, 192 h
Please treat pIC50 as minus the base-10 logarithm of the molar concentration.

// query In one line, give reported pIC50 of the entry `C/C=C/Cn1cc(-c2ccc(C(C)(C)O)cc2OC)c2cc[nH]c2c1=O` .
// result 4.70

# next molecule below
// query Supply measured pIC50 of `C/C=C/Cn1cc(-c2ccc(C(=O)N3CCOCC3)cc2)c2cc[nH]c2c1=O` in your reply.
// result 4.70

----------
# protocol: Cytotoxicity against human TYK-nu.CP-r cells measured after 8 days
# Format: functional, cell-based
# condition: 192 h
This listing pairs compounds with measured IC50.

// query Read off the recorded IC50 for `C/C=C/Cn1cc(-c2ccc(C(=O)N3CCOCC3)cc2)c2cc[nH]c2c1=O`
// result 20 µM

Would you kindly look at the next entry?
// query Recall and state the measured IC50 for `C/C=C/Cn1cc(-c2ccc(C(C)(C)O)cc2OC)c2cc[nH]c2c1=O` .
// result 20 µM

----------
# protocol: Cytotoxicity against human KPR3070 cells measured after 8 days
# Format: functional, cell-based
# condition: KPR3070, 192 h
quantity: IC50 (µM)
Form entry: value (µM) — number only.

// query For `C/C=C/Cn1cc(-c2ccc(C(=O)N3CCOCC3)cc2)c2cc[nH]c2c1=O` , write its IC50.
// result 20

More entries:
// query Name the recorded IC50 of the compound listed here: `C/C=C/Cn1cc(-c2ccc(C(C)(C)O)cc2OC)c2cc[nH]c2c1=O`
// result 20
